Cited source: ChEMBL document CHEMBL3137667

details: human
Catalogue of Hepatotoxicity (steatosis) readings, one per entry.

{"columns": ["MOLECULE", "Hepatotoxicity (steatosis)"],
 "data": [
  ["CC[C@]1(O)CC[C@H]2[C@@H]3CCC4=CC(=O)CC[C@@H]4[C@H]3CC[C@@]21C", 0],
  ["Cc1ccc(Cl)c(Nc2ccccc2C(=O)O)c1Cl", 0],
  ["CCC(COC(=O)c1cc(OC)c(OC)c(OC)c1)(c1ccccc1)N(C)C (stereo not given)", 0],
  ["CC(Cc1ccccc1)NCCC(c1ccccc1)c1ccccc1 (stereo not given)", 0],
  ["C[C@H]1O[C@@H](O[C@H]2[C@@H](O)C[C@H](O[C@H]3[C@@H](O)C[C@H](O[C@H]4CC[C@@]5(C)[C@H](CC[C@@H]6[C@@H]5C[C@@H](O)[C@]5(C)[C@@H](C7=CC(=O)OC7)CC[C@]65O)C4)O[C@@H]3C)O[C@@H]2C)C[C@H](O)[C@@H]1O", 0],
  ["CC1(C)S[C@@H]2[C@H](NC(=O)Cc3ccccc3)C(=O)N2[C@H]1C(=O)O", 0],
  ["O=C1CN(/N=C/c2ccc(-c3ccc([N+](=O)[O-])cc3)o2)C(O)=N1", 0],
  ["CCOC(=O)OC(C)OC(=O)[C@@H]1N2C(=O)[C@@H](/N=C/N3CCCCCC3)[C@H]2SC1(C)C (stereo not given in full)", 0],
  ["C[C@H](CCC(=O)O)[C@H]1CC[C@H]2[C@@H]3[C@@H](O)C[C@@H]4C[C@H](O)CC[C@]4(C)[C@H]3CC[C@]12C", 0],
  ["CC(=O)N(O)CCCCCNC(=O)CCC(=O)N(O)CCCCCNC(=O)CCC(=O)N(O)CCCCCN", 0],
  ["O=C1c2cccc(O)c2C(=O)c2c(O)cccc21", 0],
  ["C#C[C@]1(O)CC[C@H]2[C@@H]3CCC4=Cc5oncc5C[C@]4(C)[C@H]3CC[C@@]21C", 0],
  ["COc1ccc([C@@H]2Sc3ccccc3N(CCN(C)C)C(=O)[C@@H]2OC(C)=O)cc1", 1],
  ["Cc1c(-c2ccccc2)oc2c(C(=O)OCCN3CCCCC3)cccc2c1=O [FLAVOXATE]", 0],
  ["CN1CCN(c2c(F)cc3c(=O)c(C(=O)O)cn(CCF)c3c2F)CC1", 0]
]}

====

settings: human, serum
Catalogue of Hepatotoxicity (moderate) readings, one per entry.
EXPERIMENTAL_ENDPOINT: Hepatotoxicity (moderate)

{"columns": ["MOLECULE", "OBSERVED_MEASUREMENT"],
 "data": [
  ["CC(C)(C)C(=O)OCOC(=O)[C@@H]1N2C(=O)[C@@H](/N=C/N3CCCCCC3)[C@H]2SC1(C)C [AMDINOCILLIN PIVOXIL]", 1],
  ["CC[C@H]1OC(=O)[C@H](C)[C@@H](O[C@H]2C[C@@](C)(OC)[C@@H](O)[C@H](C)O2)[C@H](C)[C@@H](O[C@@H]2O[C@H](C)C[C@H](N(C)C)[C@H]2O)[C@](C)(O)C[C@@H](C)/C(=N\\OCOCCOC)[C@H](C)[C@@H](O)[C@]1(C)O [ROXITHROMYCIN]", 38],
  ["COc1ccc(CCN(C)CCCOc2ccc(S(=O)(=O)c3c(C(C)C)cn4ccccc34)cc2)cc1OC [FANTOFARONE]", 1],
  ["CO/N=C(\\C(=O)N[C@@H]1C(=O)N2C(C(=O)[O-])=C(C[n+]3ccc(N)n3CCO)CS[C@H]12)c1csc(N)n1 [CEFOSELIS]", 33],
  ["NNc1nncc2ccccc12 [HYDRALAZINE]", 4],
  ["N=C(N)c1ccc(/C=C/c2ccc(C(=N)N)cc2O)cc1 [HYDROXYSTILBAMIDINE]", 0],
  ["O=C(COCCOCCOCC(=O)Nc1c(I)cc(I)c(C(=O)O)c1I)Nc1c(I)cc(I)c(C(=O)O)c1I [IOTROXIC ACID]", 1]
]}
